- TARGET ENTITY: human OX2 receptor (Homo sapiens, UniProt O43614)
- Construct: expressed in transfected cells
- Sequence (O43614 whole entry): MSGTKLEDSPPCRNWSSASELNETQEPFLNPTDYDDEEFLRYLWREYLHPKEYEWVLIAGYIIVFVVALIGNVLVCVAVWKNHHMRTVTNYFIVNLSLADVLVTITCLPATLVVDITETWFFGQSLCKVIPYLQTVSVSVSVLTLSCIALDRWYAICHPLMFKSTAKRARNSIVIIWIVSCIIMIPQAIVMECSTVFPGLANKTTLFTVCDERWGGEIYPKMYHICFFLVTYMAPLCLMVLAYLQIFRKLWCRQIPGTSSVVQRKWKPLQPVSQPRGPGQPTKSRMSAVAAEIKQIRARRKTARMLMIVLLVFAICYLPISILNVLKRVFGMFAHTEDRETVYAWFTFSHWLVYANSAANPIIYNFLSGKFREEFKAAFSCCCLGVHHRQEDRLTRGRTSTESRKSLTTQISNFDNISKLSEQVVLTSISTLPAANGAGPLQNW
- EXPERIMENT NOTES: Measurement of orexin type 2 receptor agonist activity (calcium fluorescence, Fluo-4 AM, FDSS)
- Format: cell-based
- RUN CONDITIONS: compound at 3 μM; CHO cells forcibly expressing human OX2 receptor; DMSO = 0%, 10 nM orexin A (human) = 100%
PARAMETER MEASURED: OX2R agonist activity (3 μM, %)

molecule=Cc1cnc([C@@H]2CC(N3C[C@@H](NS(=O)(=O)C4CC4)C(F)(F)C3)=NO2)c(-c2c(F)cccc2F)c1 target_entity="human OX2 receptor (Homo sapiens, UniProt O43614)" numeric_result=102
molecule="Cc1cnc(C2(CF)CC(N3C[C@@H](NS(C)(=O)=O)C(F)(F)C3)=NO2)c(-c2c(F)cc(F)cc2F)c1 (stereo partly shown)" target_entity="human OX2 receptor (Homo sapiens, UniProt O43614)" numeric_result=99
molecule="CCC1(c2ncc(F)cc2-c2c(F)cccc2F)CC(N2C[C@@H](NS(C)(=O)=O)C(F)(F)C2)=NO1 (stereo partly shown)" target_entity="human OX2 receptor (Homo sapiens, UniProt O43614)" numeric_result=104
molecule="CS(=O)(=O)N[C@H]1CCN(C2=NOC(c3ccccc3C3=CCCCC3)C2)C1 (stereo partly shown)" target_entity="human OX2 receptor (Homo sapiens, UniProt O43614)" numeric_result=77

====

- TARGET ENTITY: human OX2 receptor (Homo sapiens)
- Construct: expressed in transfected cells
- EXPERIMENT NOTES: Measurement of orexin type 2 receptor agonist activity (calcium fluorescence, Fluo-4 AM, FDSS)
- Format: cell-based
- RUN CONDITIONS: compound at 3 μM; CHO cells forcibly expressing human OX2 receptor; DMSO = 0%, 10 nM orexin A (human) = 100%
OX2R agonist activity (3 μM, %): recorded values
PARAMETER MEASURED: OX2R agonist activity (3 μM, %)

compound="Cc1ccc(C2CC(N3C[C@@H](NS(C)(=O)=O)C(F)(F)C3)=NO2)c(-c2c(F)cccc2F)n1 (some centres unmarked)" parameter_measured="OX2R agonist activity (3 μM, %)" unit_name=% numeric_result=87
compound="CS(=O)(=O)N[C@@H]1CN(C2=NOC(c3c(F)ccc(F)c3-c3c(F)cccc3F)C2)CC1(F)F (some centres unmarked)" parameter_measured="OX2R agonist activity (3 μM, %)" unit_name=% numeric_result=114
compound="CS(=O)(=O)N[C@@H]1CN(C2=NOC(c3c(F)ccc(F)c3-c3c(F)cccc3F)C2)C[C@@H]1F (some centres unmarked)" parameter_measured="OX2R agonist activity (3 μM, %)" unit_name=% numeric_result=99
compound="CS(=O)(=O)N[C@@H]1CN(C2=NOC(CF)(c3ncccc3-c3c(F)cccc3F)C2)CC1(F)F (some centres unmarked)" parameter_measured="OX2R agonist activity (3 μM, %)" unit_name=% numeric_result=95
compound="CS(=O)(=O)N[C@@H]1CN(C2=NOC(c3c(F)cc(F)c(F)c3-c3c(F)cccc3F)C2)C[C@@H]1F (some centres unmarked)" parameter_measured="OX2R agonist activity (3 μM, %)" unit_name=% numeric_result=102
compound="CS(=O)(=O)N[C@@H]1CN(C2=NOC(c3ccccc3-c3c(F)cccc3F)C2)CC1(F)F (some centres unmarked)" parameter_measured="OX2R agonist activity (3 μM, %)" unit_name=% numeric_result=104
compound="CS(=O)(=O)N[C@@H]1CN(C2=NOC(c3ncc(F)cc3-c3c(F)cc(F)cc3F)C2)C[C@@H]1F (some centres unmarked)" parameter_measured="OX2R agonist activity (3 μM, %)" unit_name=% numeric_result=98
compound="CS(=O)(=O)N[C@@H]1CN(C2=NOC(c3ncc(C4CC4)cc3-c3c(F)cc(F)cc3F)C2)CC1(F)F (some centres unmarked)" parameter_measured="OX2R agonist activity (3 μM, %)" unit_name=% numeric_result=103
compound="Cc1cc(-c2c(F)cccc2F)c(C2CC(N3C[C@@H](NS(C)(=O)=O)C(F)(F)C3)=NO2)cn1 (some centres unmarked)" parameter_measured="OX2R agonist activity (3 μM, %)" unit_name=% numeric_result=100
compound=Cc1cnc([C@@H]2CC(N3C[C@@H](F)[C@H](NS(C)(=O)=O)C3)=NO2)c(-c2c(F)cc(F)cc2F)c1 parameter_measured="OX2R agonist activity (3 μM, %)" unit_name=% numeric_result=94
compound=Cc1cnc([C@@H]2CC(N3C[C@@H](NS(=O)(=O)C(F)F)C(F)(F)C3)=NO2)c(-c2c(F)cccc2F)c1 parameter_measured="OX2R agonist activity (3 μM, %)" unit_name=% numeric_result=104
compound="Cc1cnc([C@@H]2CC(O[C@@H]3CC[C@H](NS(C)(=O)=O)C3)=NO2)c(-c2c(F)cc(F)cc2F)c1 (mixture of isomers)" parameter_measured="OX2R agonist activity (3 μM, %)" unit_name=% numeric_result=17
compound="Cc1cnc(C2(C(F)F)CC(N3C[C@@H](NS(C)(=O)=O)C(F)(F)C3)=NO2)c(-c2c(F)cc(F)cc2F)c1 (some centres unmarked)" parameter_measured="OX2R agonist activity (3 μM, %)" unit_name=% numeric_result=106
compound="Cc1cn(-c2c(F)cccc2F)c(C2(C)CC(N3C[C@@H](NS(C)(=O)=O)C(F)(F)C3)=NO2)n1 (some centres unmarked)" parameter_measured="OX2R agonist activity (3 μM, %)" unit_name=% numeric_result=71
